# Test system: SNB-19
# ASSAY_PROTOCOL: NCI tumour cell line growth inhibition, 48 h
Active and inactive are the calls of the source. Rule as the data show it: active = GI50 up to about 1.1 µM and inactive = higher.
MEASUREMENT_TYPE: GI50

Query :: Endpoint output: GI50 of C=C(CCCCCCCCC)CC(=O)SCCNC(=O)CCNC(=O)C(O)C(C)(C)COP(=O)(O)OP(=O)(O)OCC1OC(n2cnc3c(N)ncnc32)C(O)C1OP(=O)(O)O (stereo not given) . Value?
Result :: > 71.6 µM (inactive)

Query :: Endpoint output: GI50 of "COc1cccc(-c2nccc3c(OCc4ccccc4)c(OC)c(OC)cc23)c1" . Value?
Result :: > 100 µM (inactive)

Cited source: ChEMBL document CHEMBL1201862
